Assay: NCI Yeast Anticancer Drug Screen. Data for the bub3 strain (AID 167)
Settings: S. cerevisiae bub3 mutant strain, at 5.0 µM (retest, dose inferred, filed as 0.5), hits give high values
Method: Growth inhibition of yeast strains with defined genetic alterations is measured as a screen for potential anti-cancer activity. Selected strains with alterations in DNA damage repair or cell cycle control were exposed to compounds and growth inhibition was measured relative to vehicle treated controls. The strain used in this assay is bub3
This is part of a sample that, as a whole, favours compounds with a hit. Of some 79,000 tested, about 15% had one in any assay.
Label label 0 if growth inhibition falls below 20%; label label 1 in every other case.

For orientation, consider the following solved cases.
In [3]: df
Out[3]:
                                   compound  label_value
0  CCOC(CCl)Oc1c(C(C)C)cc(C(C)C)c(Cl)c1C (configuration not stated)      label 0
1    NC(=O)C(=O)N/N=C/c1ccc([N+](=O)[O-])o1      label 1
2    Cc1ccc(NCCN(C)C)c2c(=O)c3ccc(O)cc3sc12      label 0

For this compound, is measured growth inhibition 20% or higher? CC(=O)OC1=CC(n2cc(F)c(=O)[nH]c2=O)OC(C)C1=O (configuration not stated)
label 0

Then what about the compound CCCCCCC/C=C\C(=O)O ?
label 0

How about this compound: N[C@@H]1CCCC[C@@H]1N.O=C([O-])CN(CP(=O)([O-])[O-])CP(=O)([O-])[O-].[Pt+2]
label 0

Cc1ccc(S(=O)(=O)Nc2ccccc2SSc2ccccc2NS(=O)(=O)c2ccc(C)cc2)cc1 ?
label 1

Follow-up entry: O=C(N/N=C/c1ccccc1[O-])c1ccccc1O.O=C(N/N=C/c1ccccc1[O-])c1ccccc1O.[Mn+2]
label 1

# repeat for C=CCNC(=S)N/N=C(\CCC)c1ccccn1
label 1

And what about the compound CC(=O)Oc1ccc(/C=C2\N=C(c3ccccc3)OC2=O)c(OC(C)=O)c1 ?
label 0

Now consider OC(c1cc(-c2ccccc2)nc2cc(Cl)ccc12)C1CCCCN1 (configuration not stated) .
label 0

What about this compound? O=C(c1ccccc1)C1(C(=O)c2ccccc2)/C(=N\O)C2CCC1C2 (configuration not stated)
label 0

====

Test: NCI Yeast Anticancer Drug Screen. Data for the rad50 strain (AID 155);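 also: 0% = growth of vehicle-only cultures of the same strain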
Details: S. cerevisiae rad50 strain growth inhibition; at 50.0 µM; hits give high values
The panel holds about 79,000 compounds, 15% with a hit somewhere; the sample as a whole holds those more often.
Grouping by measured growth inhibition is done with the following cut points: one = under 60%, two = from 60% up to 80%, three = 80% and over

Example cases with answers are listed next.
>>> df
                                   compound  label_value
0  O/N=C1/C(=C/c2ccc(Cl)c(Cl)c2)CCCC1C(NO)c1ccc(Cl)c(Cl)c1 (stereo unspecified)          two
1  O=C1CC(c2ccccc2)NN1 (stereo unspecified)        three
2  CCN(CC)CCCNc1c2c(Cl)cc(Cl)cc2nc2nc(=O)[nH]c(C)c12          one
3               O=c1cc(CSc2ccc(Cl)cc2)occ1O          one
4  CCCC/C(=N/Nc1ccc([N+](=O)[O-])cc1)C(=O)O          two

Hi, small favor: classify O=C(NC(c1ccccc1)N1CCOCC1)c1ccccc1 (stereo unspecified) by its growth inhibition when you get a moment.
three

CC(=O)/C(=C\c1c(Cl)cccc1Cl)C(=O)CCN(C)C , same question.
two

Would you mind doing CCCCc1c2c(nc3c1CCc1cc4cc5c(nc4nc1-3)-c1nc3c(c(CCCC)c1CC5)CCCC3=O)C(=O)CCC2 as well?
three

Also, CN/N=C(\C)C(CN1CCCCC1)C(C1=C(O)c2ccccc2OC1)c1ccccc1 (stereo unspecified) please.
two

Check CCc1scc(C)[n+]1CC(=O)c1cccc([N+](=O)[O-])c1 too.
one

Now this one: O=C1Oc2cc3c(c4cccc1c24)OCN(c1ccccc1)C3
two

Similarly, COc1ccc(CNC(C#N)c2ccccc2)cc1OC (stereo unspecified) ?
three

Ok, now CN(C)c1ccc(-c2c(C#N)c(-c3ccccc3)n(NS(=O)(=O)c3ccccc3)c(=O)c2C#N)cc1
two

Now consider CN(C)C1=NC(N(C)C)=C2C=CC=C12 and answer again.
two

Next record, please: O=C(O)/C=C/C(=O)NNc1nc2ccccc2s1
one

Proceed to C1=C(C2=C[P+](c3ccccc3)(c3ccccc3)C=C(c3ccccc3)O2)OC(c2ccccc2)=C[P+]1(c1ccccc1)c1ccccc1
one

Now consider C1=NN(c2ccccc2)C2c3ccccc3CCCC12 (stereo unspecified) .
three

How about this compound: O=C1OC(c2ccccc2)=N/C1=C\c1ccc(Oc2ccc(Cl)c(Cl)c2)cc1
two

====

Experiment: NCI Yeast Anticancer Drug Screen. Data for the sgs1 mgt1 strain (AID 161);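 also: 0% = growth of cultures given vehicle only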
Settings: S. cerevisiae sgs1 mgt1 strain, at 5.0 µM (retest, dose inferred, filed as 0.5), hits give high values
Protocol: Growth inhibition of yeast strains with defined genetic alterations is measured as a screen for potential anti-cancer activity. Selected strains with alterations in DNA damage repair or cell cycle control were exposed to compounds and growth inhibition was measured relative to vehicle treated controls. The strain used in this assay is sgs1 mgt1
The panel holds about 79,000 compounds, 15% with a hit somewhere; the sample as a whole holds those more often.
# cutoff 30% applies to growth inhibition; >= gives TRUE, < gives FALSE

In [3]: df
Out[3]:
                                   compound  label_value
0  CCCCCCCCCCCCCC(=O)OCCCC1CCCO1 (stereo not given)        FALSE
1  CCOC(=O)C1(C#N)C(c2ccccc2)C1(C#N)C#N (stereo not given)         TRUE
2  COC(=O)N/N=C(/CC1(O)C(=O)Nc2ccccc21)c1ccc(Cl)cc1Cl (stereo not given)         TRUE

Next up:
Test whether the compound CC(C)OP(=O)(OC(C)C)/C(I)=N/Nc1ccc([N+](=O)[O-])cc1 records growth inhibition of 30% or higher.
FALSE

====

Assay: NCI Yeast Anticancer Drug Screen. Data for the bub3 strain (AID 167)
Conditions: S. cerevisiae bub3 mutant strain, at 50.0 µM (retest, dose inferred, filed as 5.0)
This is part of a sample that, as a whole, favours compounds with a hit. Of some 79,000 tested, about 15% had one in any assay. The source made the active and inactive calls. Cut-off read from the data, not from the text of the source: active = growth inhibition above about 70%; inactive = the rest.
Just give me one of these, please: active, inactive

>>> df
                                   molecule  label_value
0  NC(Cc1ccccc1)c1ccc2cccc3c2c1CC3 (stereo unspecified)     inactive
1  O=C(O)CCC12CCCCC1=NC1(CCCCC1)NC2=O (stereo unspecified)     inactive
2  CCOc1ccccc1/C=N/Nc1nnc(N/N=C/c2ccccc2OCC)c2ccccc12     inactive

Read the next record carefully.
Tell me the assay call for Cc1ccccc1N1C(=O)c2ccccc2C1=O please.
inactive

====

Test: NCI Yeast Anticancer Drug Screen. Data for the mec2-1 strain (AID 157)
Details: S. cerevisiae mec2-1 strain, at 50.0 µM
This is part of a sample that, as a whole, favours compounds with a hit. Of some 79,000 tested, about 15% had one in any assay. Active and inactive are the calls of the source. No stated cut-off is given here; in the data, active means growth inhibition above about 70%; inactive means the rest.
Choose the fitting class; nothing outside 1.0 = active, 0.0 = inactive is accepted.

Consider the following illustrative entries.
In [3]: df
Out[3]:
                                   compound  label_value
0            COc1cnc2cc3c4c(cccc4c2c1)NC3=O          1.0
1  CC(C)(c1cc(Br)c(O)c(Br)c1)c1cc(Br)c(O)c(Br)c1          1.0
2  CN/N=C(\C)C(CN1CCCCC1)C(C1=C(O)c2ccccc2OC1)c1ccccc1 (stereo unspecified)          0.0
3         O=[N+]([O-])c1ccc(O)c(C2CCCCC2)c1          1.0
4  N#Cc1c(-c2ccc(Cl)c(Cl)c2)c(-c2ccc(Cl)c(Cl)c2)nn(CCO)c1=O          1.0
5           CCCCCCCCN1C(=O)c2ccccc2S1(=O)=O          0.0
6   CC(=O)/C(=C\c1c(Cl)cccc1Cl)C(=O)CCN(C)C          1.0
7          O=C(O)c1cc2oc(-c3ccccc3)cc2[nH]1          1.0

Outcome logged for O=C(CN1CCOCC1)Nc1nc(-c2ccc(Cl)cc2)cs1 in this assay:
0.0

====

Test: NCI Yeast Anticancer Drug Screen. Data for the mec2-1 strain (AID 157)
Settings: S. cerevisiae mec2-1 strain, at 50.0 µM (retest, dose inferred, filed as 5.0)
This is part of a sample that, as a whole, favours compounds with a hit. Of some 79,000 tested, about 15% had one in any assay. Activity calls are given as the source filed them. No stated cut-off is given here; in the data, active means growth inhibition above about 70%; inactive means the rest.
Select the matching outcome among active, inactive

>>> df
                                   compound  label_value
0  CCOC(=O)Nc1ccc(SCC2COC(Cn3ccnc3)(c3ccc(Cl)cc3Cl)O2)cc1 (stereo not drawn)       active
1  CN(C)C(=S)S(=O)(=O)CCCCS(=O)(=O)C(=S)N(C)C     inactive

API: the following record is the query input.
I would be grateful if you could indicate the recorded call for NC(=S)N/N=C/c1ccc([N+](=O)[O-])o1 .
inactive
